test_system: Dnmt3a-CD (UniProt O88508 608-908)
Sequence (O88508 608-908): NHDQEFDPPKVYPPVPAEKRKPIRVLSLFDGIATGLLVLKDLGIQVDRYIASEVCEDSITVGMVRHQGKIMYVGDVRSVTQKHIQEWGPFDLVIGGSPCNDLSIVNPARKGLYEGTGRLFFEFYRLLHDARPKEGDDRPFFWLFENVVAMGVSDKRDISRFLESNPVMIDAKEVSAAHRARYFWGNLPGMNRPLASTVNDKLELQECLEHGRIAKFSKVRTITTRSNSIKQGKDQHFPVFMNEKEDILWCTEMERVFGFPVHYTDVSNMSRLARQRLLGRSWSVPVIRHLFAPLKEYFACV
experiment_summary: BLI; 100 uM AdoHcy; BLI: 20 mM HEPES-NaOH pH 7.5, 100 mM KCl, 1 mM EDTA, 0.2 mM DTT, 100 uM AdoHcy, 5% glycerol, 0.02% Tween-20, 0.5 mg/mL BSA, 25 C; inhibition: buffer A (20 mM HEPES-NaOH pH 7.5, 100 mM KCl, 1 mM EDTA, 1 mM DTT) with 25 uM AdoMet, 37 C; FP: buffer A
study_conditions: protein: recombinant; tags: N-terminal 6xHis; chain copies: 2; label: 5' biotin; G4, mixed hybrid (CD of unlabeled MGMT-G4)

>  <binder>
GGGCCGGGGCGCGCGGGGGCGGAG (structured_DNA) [MGMT-G4-bio]

>  <Kd>
14 nM

$$$$
